Ref: paper PMC8092326

TEST NAME: in vitro
STUDY CONDITIONS: African green monkey
Each entry below carries its reported CC50.

Solved cases below.
# COMPOUND, OBSERVED MEASUREMENT
measured = [
    ("COc1ccc2c(O[C@@H]3C[C@H]4C(=O)N[C@]5(C(=O)NS(=O)(=O)C6CC6)C[C@H]5/C=C\\CCCCN(C)C(=O)[C@@H]4C3)cc(-c3nc(C(C)C)cs3)nc2c1C [Simeprevir]", "16.4 µM"),
    ("CC1(C)CCC(CN2CCN(c3ccc(C(=O)NS(=O)(=O)c4ccc(NCC5CCOCC5)c([N+](=O)[O-])c4)c(Oc4cnc5[nH]ccc5c4)c3)CC2)=C(c2ccc(Cl)cc2)C1 [Venetoclax]", "4.9 µM"),
]

Then there is this compound:
Exam item: Which CC50 is listed for Cc1ccc(C(=O)Nc2ccc(S(=O)(=O)O)c3cc(S(=O)(=O)O)cc(S(=O)(=O)O)c23)cc1NC(=O)c1cccc(NC(=O)Nc2cccc(C(=O)Nc3cc(C(=O)Nc4ccc(S(=O)(=O)O)c5cc(S(=O)(=O)O)cc(S(=O)(=O)O)c45)ccc3C)c2)c1 [Suramin] ?
Marked response: > 1000 µM

* * *

STUDY SYSTEM: human ACE2-VLP spike protein interaction (UniProt P0DTC2+Q9BYF1)
Format: binding, SARS-CoV-2
OBSERVATION TYPE: 1:1 Competition between compound vs CoV2 VLP

Past entries and their recorded results:
# MOLECULE, STUDY SYSTEM, OBSERVED MEASUREMENT
records = [
    ("C[C@H]1O[C@@H](O[C@H]2[C@@H](O)C[C@H](O[C@H]3[C@@H](O)C[C@H](O[C@H]4CC[C@@]5(C)[C@H](CC[C@@H]6[C@@H]5CC[C@]5(C)[C@@H](C7=CC(=O)OC7)CC[C@]65O)C4)O[C@@H]3C)O[C@@H]2C)C[C@H](O)[C@@H]1O", "human ACE2-VLP spike protein interaction (UniProt P0DTC2+Q9BYF1)", "23.6% ± 4.25"),
    ("COC(=O)N[C@H](C(=O)N1CC2(CC2)C[C@H]1c1ncc(-c2ccc3c(c2)C(F)(F)c2cc(-c4ccc5nc([C@@H]6[C@H]7CC[C@H](C7)N6C(=O)[C@@H](NC(=O)OC)C(C)C)[nH]c5c4)ccc2-3)[nH]1)C(C)C", "human ACE2-VLP spike protein interaction (UniProt P0DTC2+Q9BYF1)", "84.9% ± 7.3"),
    ("CO[C@H]1C[C@@H]2CC[C@@H](C)[C@@](O)(O2)C(=O)C(=O)N2CCCC[C@H]2C(=O)O[C@H]([C@H](C)C[C@@H]2CC[C@H](n3cnnn3)[C@H](OC)C2)CC(=O)[C@H](C)/C=C(\\C)[C@@H](O)[C@@H](OC)C(=O)[C@H](C)C[C@H](C)/C=C/C=C/C=C/1C", "human ACE2-VLP spike protein interaction (UniProt P0DTC2+Q9BYF1)", "71.6% ± 6.47"),
]

Exam item: Could you share what 1:1 Competition between compound vs CoV2 VLP was measured for `COC[C@H]1C[C@@H](c2ncc(-c3ccc4c(c3)COc3cc5c(ccc6nc([C@@H]7CC[C@H](C)N7C(=O)[C@@H](NC(=O)OC)C(C)C)[nH]c65)cc3-4)[nH]2)N(C(=O)[C@H](NC(=O)OC)c2ccccc2)C1` , tested on human ACE2-VLP spike protein interaction (UniProt P0DTC2+Q9BYF1)?
Marked response: 68.1% ± 9.44

* * *

TEST NAME: in vitro
STUDY CONDITIONS: African green monkey
As shown below, each of these compounds has a reported CC50 value.

Exam item: Give its CC50 value. Item: `CC#CC(=O)N1CCC[C@H]1c1nc(-c2ccc(C(=O)Nc3ccccn3)cc2)c2c(N)nccn12`
Marked response: 406 µM

* * *

STUDY SYSTEM: human ACE2 (Homo sapiens, UniProt Q9BYF1)
Construct: purchased Assay Matrix; R&D Systems
Sequence (Q9BYF1 18-805): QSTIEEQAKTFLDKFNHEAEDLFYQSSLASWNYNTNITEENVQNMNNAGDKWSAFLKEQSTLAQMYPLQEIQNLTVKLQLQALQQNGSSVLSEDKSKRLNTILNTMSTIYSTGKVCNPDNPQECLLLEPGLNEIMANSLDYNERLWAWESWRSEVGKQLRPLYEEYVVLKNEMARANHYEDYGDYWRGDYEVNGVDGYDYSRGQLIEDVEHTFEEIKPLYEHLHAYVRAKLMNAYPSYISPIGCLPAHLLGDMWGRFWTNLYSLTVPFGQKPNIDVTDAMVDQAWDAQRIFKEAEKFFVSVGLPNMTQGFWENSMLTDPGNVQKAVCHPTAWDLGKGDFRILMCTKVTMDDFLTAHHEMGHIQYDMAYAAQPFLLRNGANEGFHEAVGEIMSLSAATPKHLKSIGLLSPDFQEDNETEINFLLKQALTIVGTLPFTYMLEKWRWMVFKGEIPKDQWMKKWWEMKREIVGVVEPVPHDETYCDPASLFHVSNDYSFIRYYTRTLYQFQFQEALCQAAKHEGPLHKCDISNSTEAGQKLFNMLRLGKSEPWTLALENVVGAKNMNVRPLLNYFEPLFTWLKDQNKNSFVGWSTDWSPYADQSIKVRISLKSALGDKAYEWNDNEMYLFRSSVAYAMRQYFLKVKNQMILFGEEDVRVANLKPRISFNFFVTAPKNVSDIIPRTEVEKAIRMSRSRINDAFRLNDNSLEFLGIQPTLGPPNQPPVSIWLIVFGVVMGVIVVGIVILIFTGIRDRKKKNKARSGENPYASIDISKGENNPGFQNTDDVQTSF
TEST NAME: biochemical
Assay type: binding
STUDY CONDITIONS: immobilized recombinant human ACE2; ± one SD; read-out: KD (nM) determined by SPR
Listed here: items and their measured Kd.
Number only, in nM; omit the unit.

Check out these entries, answers already filled in.
# MOLECULE, STUDY SYSTEM, OBSERVATION TYPE, OBSERVED MEASUREMENT
records = [
    ("COC[C@H]1C[C@@H](c2ncc(-c3ccc4c(c3)COc3cc5c(ccc6nc([C@@H]7CC[C@H](C)N7C(=O)[C@@H](NC(=O)OC)C(C)C)[nH]c65)cc3-4)[nH]2)N(C(=O)[C@H](NC(=O)OC)c2ccccc2)C1", "human ACE2 (Homo sapiens, UniProt Q9BYF1)", "Kd", 24.9),
    ("C[C@H]1O[C@@H](O[C@H]2[C@@H](O)C[C@H](O[C@H]3[C@@H](O)C[C@H](O[C@H]4CC[C@@]5(C)[C@H](CC[C@@H]6[C@@H]5CC[C@]5(C)[C@@H](C7=CC(=O)OC7)CC[C@]65O)C4)O[C@@H]3C)O[C@@H]2C)C[C@H](O)[C@@H]1O", "human ACE2 (Homo sapiens, UniProt Q9BYF1)", "Kd", 1480),
    ("CCc1c2c(nc3ccc(OC(=O)N4CCC(N5CCCCC5)CC4)cc13)-c1cc3c(c(=O)n1C2)COC(=O)[C@]3(O)CC", "human ACE2 (Homo sapiens, UniProt Q9BYF1)", "Kd", 825),
    ("COc1cc(-c2ccc(/N=N/c3ccc4c(S(=O)(=O)O)cc(S(=O)(=O)O)c(N)c4c3O)c(OC)c2)ccc1/N=N/c1ccc2c(S(=O)(=O)O)cc(S(=O)(=O)O)c(N)c2c1O", "human ACE2 (Homo sapiens, UniProt Q9BYF1)", "Kd", 349),
]

Exam item: Which Kd is reported for this molecule? `CC1(C)CCC(CN2CCN(c3ccc(C(=O)NS(=O)(=O)c4ccc(NCC5CCOCC5)c([N+](=O)[O-])c4)c(Oc4cnc5[nH]ccc5c4)c3)CC2)=C(c2ccc(Cl)cc2)C1`
Marked response: 290

Exam item: Returns the measured Kd for the input molecule. Input: `COC(=O)N[C@H](C(=O)N1CC2(CC2)C[C@H]1c1ncc(-c2ccc3c(c2)C(F)(F)c2cc(-c4ccc5nc([C@@H]6[C@H]7CC[C@H](C7)N6C(=O)[C@@H](NC(=O)OC)C(C)C)[nH]c5c4)ccc2-3)[nH]1)C(C)C`
Marked response: 417

Exam item: Would you kindly share the measured Kd for `C[C@H]1O[C@@H](O[C@H]2[C@@H](O)C[C@H](O[C@H]3[C@@H](O)C[C@H](O[C@H]4CC[C@@]5(C)[C@H](CC[C@@H]6[C@@H]5C[C@@H](O)[C@]5(C)[C@@H](C7=CC(=O)OC7)CC[C@]65O)C4)O[C@@H]3C)O[C@@H]2C)C[C@H](O)[C@@H]1O` ?
Marked response: 1250

* * *

STUDY SYSTEM: RBD-mimic1 peptide-ACE2 interaction (Homo sapiens)
Construct: purchased Assay Matrix; R&D Systems (ACE2); Mimotopes, Australia (peptide)
TEST NAME: SPR competition (ABA injection) between compound and RBD-mimic1 peptide for immobilized ACE2
Format: binding
STUDY CONDITIONS: read-out: 1:1 competition between compound vs RBD-mimic1 peptide at 1 μM
Label Fulfilled when inhibition at 1 µM is at or above 60%; otherwise label Not fulfilled.

Known results for compounds:
# MOLECULE, STUDY SYSTEM, QUALITATIVE LABEL
rows = [
    ("CO[C@H]1C[C@@H]2CC[C@@H](C)[C@@](O)(O2)C(=O)C(=O)N2CCCC[C@H]2C(=O)O[C@H]([C@H](C)C[C@@H]2CC[C@H](n3cnnn3)[C@H](OC)C2)CC(=O)[C@H](C)/C=C(\\C)[C@@H](O)[C@@H](OC)C(=O)[C@H](C)C[C@H](C)/C=C/C=C/C=C/1C", "RBD-mimic1 peptide-ACE2 interaction (Homo sapiens)", "Fulfilled"),
    ("CCc1c2c(nc3ccc(OC(=O)N4CCC(N5CCCCC5)CC4)cc13)-c1cc3c(c(=O)n1C2)COC(=O)[C@]3(O)CC", "RBD-mimic1 peptide-ACE2 interaction (Homo sapiens)", "Fulfilled"),
    ("CC1(C)CCC(CN2CCN(c3ccc(C(=O)NS(=O)(=O)c4ccc(NCC5CCOCC5)c([N+](=O)[O-])c4)c(Oc4cnc5[nH]ccc5c4)c3)CC2)=C(c2ccc(Cl)cc2)C1", "RBD-mimic1 peptide-ACE2 interaction (Homo sapiens)", "Fulfilled"),
]

Exam item: Could you verify whether the entry `COC(=O)N[C@H](C(=O)N1CC2(CC2)C[C@H]1c1ncc(-c2ccc3c(c2)C(F)(F)c2cc(-c4ccc5nc([C@@H]6[C@H]7CC[C@H](C7)N6C(=O)[C@@H](NC(=O)OC)C(C)C)[nH]c5c4)ccc2-3)[nH]1)C(C)C` shows inhibition at 1 µM of no less than 60%?
Marked response: Fulfilled

Exam item: Does the compound `Cc1cc(-c2ccc(/N=N/c3ccc4c(S(=O)(=O)O)cc(S(=O)(=O)O)c(N)c4c3O)c(C)c2)ccc1/N=N/c1ccc2c(S(=O)(=O)O)cc(S(=O)(=O)O)c(N)c2c1O` have recorded inhibition at 1 µM that is 60% or more?
Marked response: Fulfilled

Exam item: Is it the case that `COc1cc(-c2ccc(/N=N/c3ccc4c(S(=O)(=O)O)cc(S(=O)(=O)O)c(N)c4c3O)c(OC)c2)ccc1/N=N/c1ccc2c(S(=O)(=O)O)cc(S(=O)(=O)O)c(N)c2c1O` has inhibition at 1 µM reaching or exceeding 60%?
Marked response: Not fulfilled

Exam item: Hi, just wondering whether `C[C@H]1O[C@@H](O[C@H]2[C@@H](O)C[C@H](O[C@H]3[C@@H](O)C[C@H](O[C@H]4CC[C@@]5(C)[C@H](CC[C@@H]6[C@@H]5C[C@@H](O)[C@]5(C)[C@@H](C7=CC(=O)OC7)CC[C@]65O)C4)O[C@@H]3C)O[C@@H]2C)C[C@H](O)[C@@H]1O` shows inhibition at 1 µM of 60% or higher.
Marked response: Not fulfilled
